- EXPERIMENT: yeast display, Sf9 membrane polyspecificity reagent, FACS + sequencing; frameworks hold sequencing errors
ATTRIBUTE MEASURED: polyreactivity (PSR sort gate)

* QVQLVESGGGLVQAGGSLRLSCAASGSTSVDYTMGWYRQAPGKERELVAAIDYNGDSTYYADSVKGRFTISRDNAKNTVYLQMNSLKPEDTAVYYCAADYLSFVVVKLYGYWGQGTQVTVSS | low polyreactivity
* QLQLVESAGGLVQAGGSLRLRCAASGSTFSSYAMGWYRQAPWKERELVADITSSGGSTYYADSVKGRFTISRDNAKNSVYLQMNSLTPEDTAVYYCAADDVIFWLYYYWGQGTQVTVSS | low polyreactivity
* QVQLVESGGGLVQAGGSLRLSCAASGSTFVRYAMGWYRQAPGKEREFVAAISKRGGSTYYADSVKGRFTISRDIAKNTVYLQMNSLKPEDTAVYYCATYLLRDAPGLHQVGYWGQGTQVTVSS | high polyreactivity
* QVQLVESGGGLVQAGGSLRLSCAASGRIFHYYAMGWYRQAPGKERELVAGITSGGSTYYADSVKGRFTISRDNAKNTVYLQMNSLKPEDTAVYYCATTRYGGSRRYRPYDRERDYWGLGTQVTVSS | low polyreactivity
* QVQLVESGGGLVQAGGSLRLSCAASGRIFYGNAMGWYRQAPGKERELVATISSSGGRTTYADSVKGRFTISRDNAKNTVYLQMNSLKPEDTAVYYCADQGYWTGYDYWGQGTQVTVSS | high polyreactivity

---

- EXPERIMENT: yeast display, Sf9 membrane polyspecificity reagent, FACS + sequencing; frameworks hold sequencing errors
ATTRIBUTE MEASURED: polyreactivity (PSR sort gate)

* QVQLVESGGGLVQAGGSLRLSCAASGGTITPYAMGWYRQAPGKERELVAAISRSGARTYYADSVKGRFTISRDNAKNTVYLQMNSLKPEDTAVYYCAKTFSGYRFDYWGQGTQVTVSS | high polyreactivity
* QVQLVESGGGIVQAGGSLRLSCAASGRIFGRYAMGWYIQAPGKERELVAAISRSGGSTYYADSVKGRFTISRDNAKYTVYLQMNSLKPEDTAVYYCNAKYVRAGDTYDYWGQGTQVTVSS | high polyreactivity
* QVQLVESGGGLVQAGGSLRLSCAASGFTFGRYAMGWYRQAPGKERELVATITRTGSTNYADSVKGRFTISRDNAKNTVYLQMNSLKPEDTAVYYCNAGPDRRVSYYRLLDHWGQGTQVTVSS | low polyreactivity
* QVQLVESGGGLVQAGGSLRLSCAASGSIFPRNAMGWYRQAPGKERELVAGISSGGSTNYADSVKGRFTISRDNAKNTVYLQMNSLKPEDTAVYYCAARQWIRNLGFGYSIYYYWGLGTQVTVSS | high polyreactivity
* QVQLVESGGGLVQAGGSLRLSCAASGRTFYPNAMGWYRQAPGKERELVAAISWSGGSTYYADSVKGRFTISRDNAKNTVYLQMNSLKPEDTAVYYCNARYLYWALSYDYWGQGTQVTVSS | low polyreactivity
* QVQLVESGGGLVQAGGSLRLSCAASGRTFDRYDMGWYRQAPGKERELVATISSSGGSTYYADSVKGRFTISRDNAKNTVYLQMNSLKPEDTAVYYCAADPSGDYWGQGTQVTVSS | low polyreactivity
* QVHLVESGGGLVQAGGSLRLSCAASGSIYPYTMGWYRQAPGKERELVAGITRSGGRTYYADSVKGRFTISRDNAKNTVYLQMNSLKPEDTAVYYCAAGTTAWYWSEYYYWGQGTQVTVSS | high polyreactivity
* QVQRVESGGGLVQAGGSLRLSCAASGYILPRYAMGWYIQAPGKERELVAAITSGGITSYADSVKGRFTISRDNAKNTVYLQMNSLKPEDTAVYYCAADWYVIYDYWGQGTQVTVSS | low polyreactivity
* QVQLVESGGGLVQAGGSLRLSCAASGITFRYSAMGWYRQAPGKERELVAVISTSGGSTYYADSVKGRFTISRDNAKNTVYLQMNSLKPEDTAVYYCAARYTYWGLLRYDYWGQGTQVTVSS | high polyreactivity
* QVHLVESGGGLVQAGGSLRLSCAASGSIFTSYAMGWYRQAPGKERELVAAITSGGSTNYADSVKGRFTISRDNAKNTVFLKMNSLKPEDTAVDYCAKDRPGQLRWWFLYGYWGQGTQVTVSS | low polyreactivity
* QVQLVESGGGLVQAGGSLRLSCAASGITLYDNAMGWYRQEPGKERELVAAINVNDVSTYYADSVKGRFTISRDNAKNTVYLQMNSLKPEDTAVYYCAADSLYYGIGYWVVRYDYWGQGTQVTVSS | low polyreactivity
* QVQLVESGGGLVQAGGSLRLSCAASGFTFYHYAMGWYRPAPGKERELVAAISKSGGRTYYADSVKGRFTISRDNAMYTVYLQMNSLKPEDTAVYYFNAAYRTTSYENDYWGQGTQVTVSS | low polyreactivity
* QVQLVESGGGLVQAGGSLRLSCAASGGIFYRYAMGWYRQAPGKERELVAAITSSGGSTYYADSVKGRFTISRDNAKNTVYLQMNSLKPEDTAVYYCAADYGYYGAGSYFDRGDYWGQGTQVTVSS | high polyreactivity
* QVQLVESGGGLVQAGGSLRLSFAAYGSIFWGYAMGWYRQAPGKERELVAAISSSGGNTYYADSVKGRFTISRDNAKNTVYLQMNSLKPEDTAVYYCAATPEFYGGKITDVYSQYGYWGQGTQVTVSS | low polyreactivity
* QVQLVESGGGLVQAGGSLRLSCAASGFTRVVSTMGWYRQAPGKERELVATISYTDGSTYYADAVKGRFTISRDNAKNTDYLQMTSLKPEDTADYYCNASYPSSSYSYHVDYWGQGTQVTVSS | low polyreactivity
* QVQLVASGGGLVQAGGSLRLSSAASGYIFAPNAMGWYRQAPGKERELVAAITFSGGSTSYADSVKGRFTISRDNAKNTVYLQMNSLKPEDTAVYYCNRDDAGIMDYWGLGTQVTVSS | low polyreactivity
* QVQLVESGGGLVQAGGSLRLSCAASGSTFLYNTMGWYRQAPGKESELVATITSRGDRTYYADSVKGRFTISRDNAKNTVYLQMNSLKPEDTAVYYCNAYGGNYPQSYRYYYWGQGTQVTVSS | low polyreactivity
* QVQLQESGGGLVQAGGSLLSCAASGTISWVDEMGWYRQAPGNERELVAGIAGGGNTNYADSVKGRFTISRDNAKNTVYLLMNSLDTAVYYCAVVGFGRGNHIYWGQGTQVTVSS | high polyreactivity
* QVQLVESGGGLVQAGGSLRLSCAASGFTFGSYAMGWYRQAPGKERELVAGISRGGSTNYADSVKGRFTISRDNAKNTVYLQMNSLKPEDTAVYYCAARAVYVADTGATPAGYDYWGQGTQVTVSS | low polyreactivity
* QVQLVESGGGLGQARGSLRLSRAASGSPFEYNAMGWYRPAPGKERELVASSTNYADSVKGRFTISRDNAKNTVYLQMNSLKPEVTAVNSCAREPGVNRNHDYWGQGSQVTVSS | low polyreactivity
* QVQLVESGGGLVQAGGSLRLSCAASGRTFYRYAMGWYRQAPGNERELVAAISYSTTRTYYADSVKGRFTISRDNAKNTVYLQMNSLKPEDTAVYYCAAYGWTRFGYDYWGQGTQVTVSS | high polyreactivity
